Kindly state IC50 for each of the entries shown.
- system-name: trypsin-activated recombinant human renin (Homo sapiens, UniProt P00797)
- Sequence (P00797 67-406): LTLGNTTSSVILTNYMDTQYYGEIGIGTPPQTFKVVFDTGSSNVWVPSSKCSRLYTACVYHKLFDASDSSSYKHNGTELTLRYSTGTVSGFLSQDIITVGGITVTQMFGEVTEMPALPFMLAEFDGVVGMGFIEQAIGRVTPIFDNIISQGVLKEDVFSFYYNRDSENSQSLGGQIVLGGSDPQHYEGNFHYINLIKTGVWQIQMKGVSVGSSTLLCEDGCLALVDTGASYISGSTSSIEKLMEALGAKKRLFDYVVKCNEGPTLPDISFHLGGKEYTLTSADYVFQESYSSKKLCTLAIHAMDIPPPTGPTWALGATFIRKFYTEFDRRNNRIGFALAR
- procedure-text: Renin fluorescence assay (internally quenched peptide substrate)
- Format: biochemical
- test-settings: compounds I*

trypsin-activated recombinant human renin (Homo sapiens, UniProt P00797) / IC50 / CNC[C@@H](NC(=O)N1CCC[C@@H]([C@@H](OCCNC(=O)OC)c2cccc(F)c2F)C1)[C@@H](O)C1CCCC1 [I*-72a] : value? < 10 nM

Item: CNC[C@H](C[C@H]1CCCOC1)NC(=O)N1CCC[C@@H]([C@@](O)(CCCNC(=O)OC)c2cccc(Cl)c2F)C1 [I*-142a] < 10 nM

Item: CNC[C@H](CC1CCCCC1)NC(=O)N1CCC[C@H]([C@@H](OCCNC(=O)OC)c2c(C)ccc(F)c2F)C1 [I*-97a] < 20 nM

Item: CNC[C@H](CC1CCCCC1)NC(=O)N1CCC[C@@H]([C@@H](OCCNC(=O)OC)c2cc(F)ccc2C)C1 [I*-40a] < 1 nM
